# Experiment Description: amyloid nucleation score (Sup35N fusion, yeast selection) (log enrichment); library NNK1; higher = more nucleation; inactive = no reads after selection;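 note: zero at mode of non-aggregating sequences after 7 days selection at 30°C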
Readout Name: amyloid nucleation score

Here are 6 substances together with their reported answers.
Substance: LALKYPSLISPKRWT
Result: 0.688
//
Substance: HRGTDLSLRSWVDWLHTLRG
Result: 0.67
//
Substance: RPMTVSKEAAKSDGCQKLNT
Result: -0.634
//
Substance: DTSYGLQRVCKGR
Result: 0.429
//
Substance: FGRGHGLTGR
Result: 0.25
//
Substance: KFRSKLWNYFFACVEPATHP
Result: -0.013

Request the reported amyloid nucleation score associated with `YQKDWFDMHEYYRPM`
1.42

Recorded amyloid nucleation score for `MCDCLPPCDSGWNFFEWGWE` , please?
-0.131

src = the supplement of paper PMC12042874
